- System: 883617-216-R-J1-PDC complex spheroid viability
- ASSAY EXPLANATION: Anticancer human tumor 883617-216-R-J1-PDC patient-derived bladder carcinoma cell line growth inhibition [POLQ]
- TEST SETTINGS: second compound 0.0316 µM; first compound 10 µM; hits give low values
# viability, T/C annotations
Report only the number, with the unit % understood.

- CCc1cc2c(N3CCc4c(cc(Cn5ccnc5)cc4-c4cn(C)nc4C(F)(F)F)C3=O)cc(C)nc2c(OC)n1 + COC1C(OC(N)=O)C(O)C(Oc2ccc3c(O)c(NC(=O)c4ccc(O)c(CC=C(C)C)c4)c(=O)oc3c2C)OC1(C)C: 58.9
- CCCS(=O)(=O)Nc1ccc(F)c(C(=O)c2c[nH]c3ncc(-c4ccc(Cl)cc4)cc23)c1F + COC1C(OC(N)=O)C(O)C(Oc2ccc3c(O)c(NC(=O)c4ccc(O)c(CC=C(C)C)c4)c(=O)oc3c2C)OC1(C)C: 42.9
- COc1ccc([C@@H](O)c2cc(-c3ncnc4cc(N5CCOCC5)ccc34)c(F)cc2Cl)nn1 + COC1C(OC(N)=O)C(O)C(Oc2ccc3c(O)c(NC(=O)c4ccc(O)c(CC=C(C)C)c4)c(=O)oc3c2C)OC1(C)C: 39.1

Now consider the entry below.
Field viability, T/C (entry C#Cc1c(F)ccc2cc(O)cc(-c3ncc4c(N5CC6CCC(C5)N6)nc(OCC56CCCN5CC(F)C6)nc4c3F)c12 (centres undefined) + COC1C(OC(N)=O)C(O)C(Oc2ccc3c(O)c(NC(=O)c4ccc(O)c(CC=C(C)C)c4)c(=O)oc3c2C)OC1(C)C ) reads 75

* * *

- Test system: 883617-216-R-J1-PDC complex spheroid viability
- ASSAY EXPLANATION: Anticancer human tumor 883617-216-R-J1-PDC cell line growth inhibition [POLQ];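 also: spheroids exposed to compounds for seven days before readout; 100% = DMSO vehicle control viability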
- TEST SETTINGS: second compound 0.316 µM; first compound 10 µM; hits give low values
MEASURED ENDPOINT: viability, T/C (%)
Report only the number, with the unit % understood.

• CC1COCCN1c1cc(-c2ccnn2C)c2ccnc(-c3ccn[nH]3)c2n1 (stereo not given) + Cc1cccc(N(C)C(=O)C2C(O)CCN2c2nc(C)cc(C(F)(F)F)c2C#N)c1 = 30.9
• O=c1[nH]cc(F)c(=O)[nH]1 + COC1C(OC(N)=O)C(O)C(Oc2ccc3c(O)c(NC(=O)c4ccc(O)c(CC=C(C)C)c4)c(=O)oc3c2C)OC1(C)C = 63.5
• CCCS(=O)(=O)Nc1ccc(F)c(C(=O)c2c[nH]c3ncc(-c4ccc(Cl)cc4)cc23)c1F + COC1C(OC(N)=O)C(O)C(Oc2ccc3c(O)c(NC(=O)c4ccc(O)c(CC=C(C)C)c4)c(=O)oc3c2C)OC1(C)C = 50.1
• COc1ccc([C@@H](O)c2cc(-c3ncnc4cc(N5CCOCC5)ccc34)c(F)cc2Cl)nn1 + COC1C(OC(N)=O)C(O)C(Oc2ccc3c(O)c(NC(=O)c4ccc(O)c(CC=C(C)C)c4)c(=O)oc3c2C)OC1(C)C = 28.2

Now consider the entry below.
Field viability, T/C (entry O=C(c1cc(Cc2n[nH]c(=O)c3ccccc23)ccc1F)N1CCN(C(=O)C2CC2)CC1 + Nc1ccc(C#CCN(C(=O)Cc2ncc(C(F)(F)F)cc2C(F)(F)F)c2ccc(F)cc2)nn1 ) reads 87.9

* * *

- Test system: 883617-216-R-J1-PDC complex spheroid viability
- ASSAY EXPLANATION: Anticancer human tumor 883617-216-R-J1-PDC cell line growth inhibition [POLQ];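 also: spheroids exposed to compounds for seven days before readout; 100% = DMSO vehicle control viability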
- TEST SETTINGS: second compound 3.16 µM; first compound 0.316 µM; hits give low values
# viability, T/C annotations

Consider the following illustrative entries.
• C=CCn1c(=O)c2cnc(Nc3ccc(N4CCN(C)CC4)cc3)nc2n1-c1cccc(C(C)(C)O)n1 + COC1C(OC(N)=O)C(O)C(Oc2ccc3c(O)c(NC(=O)c4ccc(O)c(CC=C(C)C)c4)c(=O)oc3c2C)OC1(C)C = 90%
• C=CC(=O)N1CCN(c2nc(=O)n(-c3c(C)ccnc3C(C)C)c3nc(-c4c(O)cccc4F)c(F)cc23)C(C)C1 (stereo not given) + COC1C(OC(N)=O)C(O)C(Oc2ccc3c(O)c(NC(=O)c4ccc(O)c(CC=C(C)C)c4)c(=O)oc3c2C)OC1(C)C = 79.3%
• CCCS(=O)(=O)Nc1ccc(F)c(C(=O)c2c[nH]c3ncc(-c4ccc(Cl)cc4)cc23)c1F + COC1C(OC(N)=O)C(O)C(Oc2ccc3c(O)c(NC(=O)c4ccc(O)c(CC=C(C)C)c4)c(=O)oc3c2C)OC1(C)C = 103%
• C#Cc1c(F)ccc2cc(O)cc(-c3ncc4c(N5CC6CCC(C5)N6)nc(OCC56CCCN5CC(F)C6)nc4c3F)c12 (stereo not given) + Cc1cccc(N(C)C(=O)C2C(O)CCN2c2nc(C)cc(C(F)(F)F)c2C#N)c1 = 97.8%
• CNCc1ccc(-c2[nH]c3cc(F)cc4c3c2CCNC4=O)cc1 + Nc1ccc(C#CCN(C(=O)Cc2ncc(C(F)(F)F)cc2C(F)(F)F)c2ccc(F)cc2)nn1 = 91.7%
• C=CC(=O)N1CCN(c2nc(=O)n(-c3c(C)ccnc3C(C)C)c3nc(-c4c(O)cccc4F)c(F)cc23)C(C)C1 (stereo not given) + Cc1cccc(N(C)C(=O)C2C(O)CCN2c2nc(C)cc(C(F)(F)F)c2C#N)c1 = 68.6%
• C#Cc1c(F)ccc2cc(O)cc(-c3ncc4c(N5CC6CCC(C5)N6)nc(OCC56CCCN5CC(F)C6)nc4c3F)c12 (stereo not given) + Nc1ccc(C#CCN(C(=O)Cc2ncc(C(F)(F)F)cc2C(F)(F)F)c2ccc(F)cc2)nn1 = 89.1%
• Nc1ccn(C2OC(CO)C(O)C2(F)F)c(=O)n1 (stereo not given) + Cc1cccc(N(C)C(=O)C2C(O)CCN2c2nc(C)cc(C(F)(F)F)c2C#N)c1 = 41.2%
• CC1COCCN1c1cc(C2(S(C)(=N)=O)CC2)nc(-c2ccnc3[nH]ccc23)n1 (stereo not given) + Cc1cccc(N(C)C(=O)C2C(O)CCN2c2nc(C)cc(C(F)(F)F)c2C#N)c1 = 93.1%

Now consider the entry below.
Field viability, T/C (entry COc1cc2cc(C(=O)CCC(=O)O)sc2cc1OC + Cc1cccc(N(C)C(=O)C2C(O)CCN2c2nc(C)cc(C(F)(F)F)c2C#N)c1 ) reads 116%

* * *

- Test system: 883617-216-R-J1-PDC complex spheroid viability
- ASSAY EXPLANATION: Anticancer human tumor 883617-216-R-J1-PDC cell line growth inhibition [POLQ];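 also: spheroids exposed to compounds for seven days before readout; 100% = DMSO vehicle control viability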
- TEST SETTINGS: second compound 1 µM; first compound 0.316 µM; hits give low values
- Description: Multicellular complex tumor spheroid response to Polymerase (POL) inhibitors (novobiocin, ART-558, RP6685) in combination with a variety of drugs and investigational agents in selected tumor cell lines The POL inhibitors (novobiocin, ART-558, and RP6685) were evaluated both individually and in combination with standard of care and investigational anticancer small molecules within a complex spheroid model of solid tumors. . […]
MEASURED ENDPOINT: viability, T/C (%)
Report only the number, with the unit % understood.

Consider the following illustrative entries.
- O=C(Nc1ccc(O)c(NS(=O)(=O)c2ccc(F)cc2)c1)c1ccc(-c2ccccc2)cc1 + COC1C(OC(N)=O)C(O)C(Oc2ccc3c(O)c(NC(=O)c4ccc(O)c(CC=C(C)C)c4)c(=O)oc3c2C)OC1(C)C: 93.3
- CCc1cc2c(N3CCc4c(cc(Cn5ccnc5)cc4-c4cn(C)nc4C(F)(F)F)C3=O)ccnc2c(OC)n1 + COC1C(OC(N)=O)C(O)C(Oc2ccc3c(O)c(NC(=O)c4ccc(O)c(CC=C(C)C)c4)c(=O)oc3c2C)OC1(C)C: 115

Field viability, T/C (entry CCCS(=O)(=O)Nc1ccc(F)c(C(=O)c2c[nH]c3ncc(-c4ccc(Cl)cc4)cc23)c1F + Cc1cccc(N(C)C(=O)C2C(O)CCN2c2nc(C)cc(C(F)(F)F)c2C#N)c1 ) reads 92.7

* * *

# viability, T/C annotations
- Tested on: 883617-216-R-J1-PDC complex spheroid viability
- ASSAY EXPLANATION: Anticancer human tumor 883617-216-R-J1-PDC cell line growth inhibition [POLQ];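 also: spheroids exposed to compounds for seven days before readout; 100% = DMSO vehicle control viability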
- TEST SETTINGS: second compound 10 µM; first compound 0.0316 µM; hits give low values
Report only the number, with the unit % understood.

Consider the following illustrative entries.
* CCc1cc2c(N3CCc4c(cc(Cn5ccnc5)cc4-c4cn(C)nc4C(F)(F)F)C3=O)cc(C)nc2c(OC)n1 + Nc1ccc(C#CCN(C(=O)Cc2ncc(C(F)(F)F)cc2C(F)(F)F)c2ccc(F)cc2)nn1 | 106
* COc1cc2cc(C(=O)CCC(=O)O)sc2cc1OC + Cc1cccc(N(C)C(=O)C2C(O)CCN2c2nc(C)cc(C(F)(F)F)c2C#N)c1 | 121

Now consider the entry below.
Field viability, T/C (entry O=C(Nc1ccc(O)c(NS(=O)(=O)c2ccc(F)cc2)c1)c1ccc(-c2ccccc2)cc1 + Nc1ccc(C#CCN(C(=O)Cc2ncc(C(F)(F)F)cc2C(F)(F)F)c2ccc(F)cc2)nn1 ) reads 116
